Data provenance: ChEMBL document CHEMBL1629602

- Test system: Staphylococcus aureus
- Assay procedure: Antibacterial activity against chloramphenicol-resistant Staphylococcus aureus COL carrying mecI-mecR1 plasmid
- Type: functional
List of MIC values.
The reply should contain only the number, in µg/mL.

Consider the worked cases shown below.
{"Test smiles": "CO[C@@]1(NC(=O)Cc2cccs2)C(=O)N2C(C(=O)O)=C(COC(N)=O)CS[C@@H]21", "MIC, µg/mL": 3}
{"Test smiles": "CO/N=C(\\C(=O)N[C@@H]1C(=O)N2C(C(=O)O)=CCS[C@H]12)c1csc(N)n1", "MIC, µg/mL": 3}
{"Test smiles": "CC1=C(C(=O)O)N2C(=O)[C@@H](NC(=O)[C@H](N)C3=CCC=CC3)[C@H]2SC1", "MIC, µg/mL": 6}

Per the records, this molecule ( "CO/N=C(\C(=O)N[C@@H]1C(=O)N2C(C(=O)O)=C(COC(C)=O)CS[C@H]12)c1csc(N)n1" ) has MIC equal to 6

"Cc1onc(-c2ccccc2)c1C(=O)N[C@@H]1C(=O)N2[C@@H]1SC(C)(C)[C@@H]2C(=O)O" has a reported MIC of 0.4

* * *

Measured MIC values are reported for all entries that follow.
- Tested on: Staphylococcus aureus
- Assay procedure: Antibacterial activity against tetracycline-resistant Staphylococcus aureus COL-S carrying SSpbpD plasmid
- Type: functional
Write the number in µg/mL without appending the unit.

Known results for molecules:
{"Molecule": "N[C@@H]1CONC1=O [CYCLOSERINE]", "Unit name": "µg/mL", "MIC": 0.75}
{"Molecule": "CO/N=C(\\C(=O)N[C@@H]1C(=O)N2C(C(=O)O)=CCS[C@H]12)c1csc(N)n1 [CEFTIZOXIME]", "Unit name": "µg/mL", "MIC": 400}

Reported MIC for CO[C@@]1(NC(=O)Cc2cccs2)C(=O)N2C(C(=O)O)=C(COC(N)=O)CS[C@@H]21 [CEFOXITIN] was 200

Query CO/N=C(\C(=O)N[C@@H]1C(=O)N2C(C(=O)O)=C(COC(C)=O)CS[C@H]12)c1csc(N)n1 [CEFOTAXIME] yields MIC of 200

MIC in this record for CC1=C(C(=O)O)N2C(=O)[C@@H](NC(=O)[C@H](N)C3=CCC=CC3)[C@H]2SC1 [CEPHRADINE] : 100

Recorded MIC (molecule Cc1onc(-c2ccccc2)c1C(=O)N[C@@H]1C(=O)N2[C@@H]1SC(C)(C)[C@@H]2C(=O)O [OXACILLIN] ): 400
